Tested on: Escherichia coli
Protocol Description: Minimum inhibitory concentration against Escherichia coli (GC 4564) was determined
Type: functional
Measured Metric: MIC (µg/mL)
// note: answer is a bare numeric in µg/mL

Fill blank: measured MIC of the compound COc1ccc2cc(CO[C@H]3[C@H](O)[C@H](O)[C@@H](O[C@H]4[C@H](O)[C@H](O)[C@@H](Oc5ccc(C[C@H]6NC(=O)[C@H]([C@@H](C)c7ccccc7)NC(=O)CNC(=O)[C@H](CO)NC(=O)[C@@H]([C@@H](O)[C@@H]7CN=C(N)N7[C@H]7O[C@H](O)[C@@H](O)[C@H](O)[C@@H]7O)NC(=O)[C@H]([C@@H](O)[C@@H]7CN=C(N)N7)NC6=O)cc5)O[C@@H]4CO)O[C@@H]3CO)ccc2c1 is ____. 32

Another compound: COc1ccc2cc(CO[C@H]3[C@H](O)[C@@H](CO)OC(O[C@H]4[C@H](O)[C@H](O)[C@@H](Oc5ccc(C[C@H]6NC(=O)[C@H]([C@@H](C)c7ccccc7)NC(=O)CNC(=O)[C@H](CO)NC(=O)[C@@H]([C@@H](O)[C@@H]7CN=C(N)N7[C@H]7O[C@H](O)[C@@H](O)[C@H](O)[C@@H]7O)NC(=O)[C@H]([C@@H](O)[C@@H]7CN=C(N)N7)NC6=O)cc5)O[C@@H]4CO)[C@H]3O)ccc2c1 (stereo not given in full) 128
